Below, each of the variants is paired with its reported normalized RNA/DNA level with ligand (log10) value.
B1: library; a variant is named by its letters at N, in order (parent)
chain: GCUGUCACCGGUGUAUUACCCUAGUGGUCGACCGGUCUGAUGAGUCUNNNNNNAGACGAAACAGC

variants of: B1; experiment: normalized RNA/DNA level with ligand (relative to sTRSVctl = 100) (log10 (% of sTRSVctl)); ligand: hypoxanthine (xanthine aptamer); higher = less ribozyme self-cleavage, higher mRNA level; details: ligand concentration (+) RNA-Seq: 5 mM, HEK293T, reporter: mCherry (pCS4076), ligand present: yes
Kindly provide the number alone.

constructSequence	measurement
GCUGUCACCGGUGUAUUACCCUAGUGGUCGACCGGUCUGAUGAGUCUGCGAGCAGACGAAACAGC	1.81
GCUGUCACCGGUGUAUUACCCUAGUGGUCGACCGGUCUGAUGAGUCUAGCAACAGACGAAACAGC	1.91
GCUGUCACCGGUGUAUUACCCUAGUGGUCGACCGGUCUGAUGAGUCUCAAACCAGACGAAACAGC	1.96
GCUGUCACCGGUGUAUUACCCUAGUGGUCGACCGGUCUGAUGAGUCUGAAAUAAGACGAAACAGC	1.92

variant GCUGUCACCGGUGUAUUACCCUAGUGGUCGACCGGUCUGAUGAGUCUAAGGUAAGACGAAACAGC , normalized RNA/DNA level with ligand (log10) observed: 1.77
